Species on record: Rattus norvegicus
experiment: Concentration of the drug in the liver of rat
Assay type: ADME, organism-based
condition_description: in vivo
Lab note - cut at 0.8 for Log M: Condition met if strictly below, Condition not met if not.

| molecule | class |
| --- | --- |
| O=C(O)c1cccc([N+](=O)[O-])c1 | Condition met |
| CN(C)c1ccc(C(=O)O)cc1 | Condition met |
| N#Cc1ccc(C(=O)O)cc1 | Condition met |
| Nc1cccc(C(=O)O)c1 [3-AMINOBENZOIC ACID] | Condition met |
| CC(=O)Nc1cccc(C(=O)O)c1 | Condition met |
| CC(=O)Nc1ccc(C(=O)O)cc1 [ACEDOBEN] | Condition met |
| COc1ccc(C(=O)O)cc1 [p-ANISIC ACID] | Condition not met |
| O=C(O)c1ccccc1 [BENZOIC ACID] | Condition not met |
| Nc1ccc(C(=O)O)cc1 | Condition met |
| CCOc1ccc(C(=O)O)cc1 | Condition not met |
| COc1cccc(C(=O)O)c1 | Condition not met |
| CN(C)c1cccc(C(=O)O)c1 | Condition met |
| N#Cc1cccc(C(=O)O)c1 | Condition met |
| Cc1cccc(C(=O)O)c1 | Condition not met |
| O=C(O)c1cccc(Cl)c1 | Condition not met |
